Molecular target: T1, PBCV1 DNA ligase (Paramecium bursaria chlorella virus 1, UniProt O41026 1-298)
T1 sequence: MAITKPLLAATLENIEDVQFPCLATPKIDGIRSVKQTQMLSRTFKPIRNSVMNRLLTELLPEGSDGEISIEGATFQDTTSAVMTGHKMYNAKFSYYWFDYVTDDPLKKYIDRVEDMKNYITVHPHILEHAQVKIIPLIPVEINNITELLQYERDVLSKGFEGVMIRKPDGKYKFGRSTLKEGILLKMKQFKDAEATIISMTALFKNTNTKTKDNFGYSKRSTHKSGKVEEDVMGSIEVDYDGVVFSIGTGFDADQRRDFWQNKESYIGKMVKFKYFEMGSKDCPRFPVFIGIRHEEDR
Assay: fluorescence anisotropy; 10 mM MgCl2, 1 mM ATP; T4 DNA ligase reaction buffer: 50 mM Tris-HCl pH 7.5 (25°C), 1 mM ATP, 10 mM MgCl2; 750 pM-4 nM DNA; anisotropy temperature not stated
Settings: protein: recombinant; label: 3'-FAM on one strand; blunt
pKd: −log10 of the molar value.
readout.label: pKd

[[record]]
binder = "Anisotropy 24mer dsDNA (dsDNA) DNA 1: GATCGTCCTTGGTGATCATGCATC DNA 2: GATGCATGATCACCAAGGACGATC"
observed_measurement = 6.00

